Assay: MRT in mouse at 1 mg/kg, po administered as cassette dose by LC/MS/MS analysis
Format: ADME, organism-based
Details: in vivo
READOUT: MRT (h)

MOLECULAR_STRING	MRT, h
Cn1nc(C(F)(F)F)cc1-c1cnc(N2CCc3cc(S(=O)(=O)Nc4c(F)cc(Cl)cc4F)cc(N4CCNC4=O)c32)nc1	2.3
Cn1nc(C(F)(F)F)cc1-c1cnc(N2CCc3cc(S(=O)(=O)Nc4c(F)cc(Cl)cc4F)cc(N4CCCC4=O)c32)nc1	3.3
Cc1cc(C(F)(F)F)nn1-c1cnc(N2CCc3cc(S(=O)(=O)Nc4c(F)cc(Cl)cc4F)cc(N4CCCC4=O)c32)nc1	2.6
